Recorded measurements of activation, one per entry
- tested on: Cellular tumor antigen p53 (Homo sapiens)
- assay summary: Primary qHTS for small molecule compounds that upregulate eGFP-tagged delta133p53alpha (in N-terminal) cells. (AID 2060322);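 note: cells pre-induced with doxycycline then dosed without doxycycline; 0% = DMSO vehicle and 100% = reference activator; nearly all actives have a fitted effect of over 75% in size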
- condition notes: NCI-H358 eGFP-delta133p53alpha fluorescence, 24 h; stronger effect = higher value
Inconclusive results are not listed.
Answer with a number only, understood to be in %.

molecule: C[C@H](Cc1ccc2c(c1)OC(C(=O)O)(C(=O)O)O2)NC[C@H](O)c1cccc(Cl)c1
unit tag: %
test result: -6.85

molecule: CC(=O)OC[C@]12[C@H](OC(C)=O)C(=O)[C@@H]3[C@@H](O)[C@@]14O[C@@]3(C)COC(=O)c1cccnc1[C@@H](C)[C@H](C)C(=O)O[C@@H]([C@H](OC(C)=O)[C@@H]2OC(C)=O)[C@]4(C)O
unit tag: %
test result: 21.4

molecule: Clc1cccc(N2CCNCC2)c1
unit tag: %
test result: 17.5

For this molecule ( COc1cc(CC#N)cc(OC)c1OC ), measured activation is 2.82

Per the records, this molecule ( COP(=S)(OC)Oc1ccc(Sc2ccc(OP(=S)(OC)OC)cc2)cc1 ) has activation equal to -14.2

CN1CCC(N(Cc2ccccc2)c2ccccc2)CC1 has a reported activation of 10.7

Given item CC(=O)O[C@H]1CC[C@H]2[C@@H]3CC[C@H]4CC(=O)C=C(C)[C@]4(C)[C@H]3CC[C@]12C , the value recorded as its activation is -6.33

What the record says about Cc1ccccc1C1=CCN(C)CC1 : activation is 1.67

Form field activation, entry C/C=C(\C)C(O)C(C)/C=C(C)/C=C/C/C(C)=C/Cc1nc(OC)c(OC)c(O[C@@H]2O[C@@H](C)[C@H](O)[C@@H](O)[C@H]2O)c1C (some centres undefined) : -19.1

====

- assay summary: BET inhibitor-based combinations targeting novel dependencies in MECOM-rearranged (r) AML: UCSD-AML1 cell line (AID 2202235); note: nearly all actives have a fitted effect of over 40% in size
- condition notes: UCSD-AML1 AML cells viability, CellTiter-Glo, 48 h; series mostly up to 46 µM
Inconclusive results are not listed. Activity calls are given as the source filed them. Calls come from the whole dose curve; as a rule, active = well fitted inhibition curve with a large enough effect; inconclusive = small, poorly fitted or top-dose-only effect; inactive = no such curve, though single readings can be large or run the other way.
Your reply should match one of these outcome classes. label 1 (active), label 0 (inactive)

compound: CCOP(=O)(OCC)C(C)NC(=O)N(CCCl)N=O (stereo not given)
cat: label 0
--
compound: COc1ccc(C(=O)c2c(C)n(CCN3CCOCC3)c3cc(I)ccc23)cc1
cat: label 0
--
compound: CC(=O)OC[C@H]1O[C@@H]([S-])[C@H](OC(C)=O)[C@@H](OC(C)=O)[C@@H]1OC(C)=O.CC[PH+](CC)CC.[Au]
cat: label 1
--
compound: COc1cc(C(=O)N2CC[C@@H](O)[C@@H](N)C2)cc2nc(-c3cc4ccccc4n3CC3CC3)n(C)c12
cat: label 0

Please turn your attention to the following entry.
So what was the verdict on CCOC(=O)Nc1ccc(NCc2ccc(F)cc2)cc1N in this test?
label 0

====

- assay summary: BET inhibitor-based combinations targeting novel dependencies in MECOM-rearranged (r) AML: HNT-34 cell line (AID 2202234); note: nearly all actives have a fitted effect of over 35% in size; note: potency is the fitted concentration of half-maximal effect
- condition notes: HNT-34 AML viability, CellTiter-Glo luminescence, 48 h; series mostly up to 46 µM
- Experimental: Ecotropic viral insertion site 1 (EVI1) is located on chromosome 3q26.2 as part of the MECOM (MDS and EVI1 complex) locus. […] A collection of 2480 mechanistically annotated dugs (MIPE v5.0) was used to screen four 3q26.2 rearranged AML cell lines and three non-3q26.2 rearranged AML cell lines. […] Cell viability was determined by luminescence based, Cell Titer Glo assay (Promega). […] Luminescence readings were taken using a Viewlux (PerkinElmer) with a 2 s exposure time per plate. […]
Inconclusive results are not listed. Calls of active or inactive are those of the source. Calls follow the shape of the dose curve; as a rule, active = well fitted inhibition curve with a large enough effect; inconclusive = small, poorly fitted or top-dose-only effect; inactive = no such curve, though single readings can be large or run the other way.
measure name: Potency

Examples with their reported Potency follow.
compound: C[C@]12CC[C@H]3[C@@H](CC[C@@]45O[C@@H]4C(O)=C(C#N)C[C@]35C)[C@@H]1CC[C@@H]2O
Potency: inactive
--
compound: C/C(=C\c1csc(C)n1)[C@@H]1C[C@@H]2O[C@]2(C)CCC[C@H](C)[C@H](O)[C@@H](C)C(=O)C(C)(C)[C@@H](O)CC(=O)O1
Potency: 8.3 nM (active)
--
compound: COC(=O)[C@]12CCC(C)(C)C[C@H]1[C@H]1C(=O)C=C3[C@@]4(C)C=C(C#N)C(=O)C(C)(C)[C@@H]4CC[C@@]3(C)[C@]1(C)CC2
Potency: 1660 nM (active)
--
compound: C=C[C@H]1CN2CCC1C[C@@H]2[C@@H](O)c1ccnc2ccccc12 (some centres not stated)
Potency: inactive
--
compound: CC[C@@]1(O)C(=O)OCc2c1cc1n(c2=O)Cc2cc3ccccc3nc2-1
Potency: 5.3 nM (active)

So for O=P1(N(CCCl)CCCl)NCCCO1 (configuration not stated) , the logged Potency turned out to be inactive

# compound Cc1sc2c(c1C)C(c1ccc(Cl)cc1)=N[C@@H](CC(=O)OC(C)(C)C)c1nnc(C)n1-2 ; its Potency = 662 nM (active)
